Each recorded value in this set is attributed to PubChem BioAssay (Tox21).

# study.system: Acetylcholinesterase (Homo sapiens) (UniProt P22303)
# Sequence (P22303 whole entry, looked up): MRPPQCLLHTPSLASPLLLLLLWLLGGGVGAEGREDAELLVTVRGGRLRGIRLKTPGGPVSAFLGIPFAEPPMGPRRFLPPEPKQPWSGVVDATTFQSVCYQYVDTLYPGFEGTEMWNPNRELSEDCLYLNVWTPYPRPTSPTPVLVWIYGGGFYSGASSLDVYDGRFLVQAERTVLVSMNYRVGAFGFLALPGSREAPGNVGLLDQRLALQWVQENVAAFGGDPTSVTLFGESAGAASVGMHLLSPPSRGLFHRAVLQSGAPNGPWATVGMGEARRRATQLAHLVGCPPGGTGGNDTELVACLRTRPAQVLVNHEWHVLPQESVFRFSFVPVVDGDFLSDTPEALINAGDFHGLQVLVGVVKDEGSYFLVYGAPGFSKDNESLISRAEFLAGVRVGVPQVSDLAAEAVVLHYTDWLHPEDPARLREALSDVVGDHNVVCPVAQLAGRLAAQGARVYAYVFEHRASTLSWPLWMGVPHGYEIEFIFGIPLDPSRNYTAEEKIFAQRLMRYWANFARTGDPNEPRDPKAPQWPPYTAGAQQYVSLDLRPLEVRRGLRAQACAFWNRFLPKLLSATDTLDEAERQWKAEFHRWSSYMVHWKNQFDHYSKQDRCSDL
# assay.overview: Acetylcholinesterase (AChE) small molecule antagonists: enzyme-based qHTS assay with human liver microsomes (AID 1347399); also: nearly all actives have a fitted effect of over 60% in size
# test.settings: qHTS inhibition; series mostly up to 115 µM
Calls of active or inactive are those of the source. Calls follow the shape of the full dose curve.
readout.name: outcome

- O=C(CCCCCCC(=O)Nc1ccccc1)NO: inactive
- OCCNCc1ccccc1: inactive
- N#Cc1ccc(C/C(=N/NC(=O)Nc2ccc(OC(F)(F)F)cc2)c2cccc(C(F)(F)F)c2)cc1: inactive
- Nc1ccc(F)c([N+](=O)[O-])c1: inactive
- C/C=C(\C)C(=O)OCC/C=C\CC: inactive

Query block: Param item = CCCC(=O)OC(=O)CCC ; retrieve measured outcome.
Result block: inactive

Query block: Same lookup for C=CC1CC2C=CC1C2 (configuration not stated) , please.
Result block: inactive
